- targetEntity: KRAS G12C (Homo sapiens, UniProt P01116, G12C)
- Sequence (P01116 1-188 isoform P01116-2 G12C): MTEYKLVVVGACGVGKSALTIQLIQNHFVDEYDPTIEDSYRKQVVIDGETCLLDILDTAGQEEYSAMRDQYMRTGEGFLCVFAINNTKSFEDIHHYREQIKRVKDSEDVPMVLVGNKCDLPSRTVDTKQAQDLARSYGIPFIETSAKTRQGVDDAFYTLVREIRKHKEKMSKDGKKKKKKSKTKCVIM
- experimentalProtocol: KRAS G12C NEA-HTRF experiment (SOS1-catalyzed displacement of GDP by GTP)
pIC50: −log10 of the molar value.
Everything with pIC50 lower than 7 is no; everything else, including exactly 7, is yes.

Worked cases, answers included:
# compound, labelClass
data = [
    ("C=CC(=O)N1CCN2C(=O)c3c(N4CCN(C)C[C@@H]4C)nc(-c4c(O)cccc4Cl)c(Cl)c3OC[C@H]2C1 (single isomer, unassigned) [Z455-1]", "no"),
    ("C=CC(=O)N1CCN2C(=O)c3c(N4CC[C@@H](N(C)C)C4(C)C)nc(-c4ccccc4F)c(Cl)c3OC[C@H]2C1", "no"),
    ("C=CC(=O)N1CCN2C(=O)c3c(N4CCN(C)[C@H](C)[C@@H]4C)nc(-c4c(O)cccc4F)c(Cl)c3OC[C@H]2C1 (single isomer, unassigned) [Z308a-1]", "yes"),
    ("C=CC(=O)N1CCN2C(=O)c3c(N4CCNC(C)C4C)nc(-c4c(O)cccc4F)c(Cl)c3OC[C@H]2C1 (stereo partly shown)", "no"),
]

Quick check: does C=CC(=O)N1CCN2C(=O)c3c(N4CC(O)CC4(C)C)nc(-c4c(O)cccc4F)c(Cl)c3OC[C@H]2C1 (stereo partly shown) have pIC50 greater than or equal to 7? yes

Could you please find out whether C=CC(=O)N1CCN2Cc3c(C(=O)N(C)C(C)C)nc(-c4ccccc4F)c(Cl)c3OC[C@H]2C1 has pIC50 that meets 7 or exceeds it? no

Test whether the compound C=CC(=O)N1CCN2C(=O)c3c(N4CC(N5CCN(C)CC5)CC4(C)C)nc(-c4ccccc4F)c(Cl)c3OC[C@H]2C1 (stereo partly shown) records pIC50 of 7 or higher. yes

hey, is pIC50 for this one >= 7? C=CC(=O)N1CCN2C(=O)c3c(N4C[C@@H](N(C)CCF)CC4(C)C)nc(-c4ccccc4F)c(Cl)c3OC[C@H]2C1 (single isomer, unassigned) yes

Check the entry C=CC(=O)N1CCN2C(=O)c3c(N4C[C@@H](C(=O)O)CC4(C)C)nc(-c4c(O)cccc4F)c(Cl)c3OC[C@H]2C1 (single isomer, unassigned) : does pIC50 equal or exceed 7? yes

* * *

- Tested on: KRAS G12C mutant NCI-H358 cells
- experimentalProtocol: Cell proliferation inhibition experiment, 3D spheroid, CellTiter-Glo, NCI-H358
- Type: cell-based, human
- runParameters: Homo sapiens, NCI-H358, 120 h, NCI-H358 (KRAS G12C mutant) 3D spheroid, 5 days with compound, CellTiter-Glo; read-out: H358 IC50
measuredParameter: IC50 (nM)
Answers are plain numbers, in nM.

For each of the compounds below, state IC50.
1. C=CC(=O)N1CCN2C(=O)c3c(N4C[C@@H](O)CC4(C)C)nc(-c4c(O)cccc4F)c(F)c3OC[C@H]2C1 (single isomer, unassigned)
2. C=CC(=O)N1CCN2C(=O)c3c(N4CC(OC)CC4(C)C)nc(-c4c(O)cccc4F)c(Cl)c3OC[C@H]2C1 (stereo partly shown)
3. C=CC(=O)N1CCN2C(=O)c3c(N4C[C@@H](OC)CC4(C)C)nc(-c4c(O)cccc4F)c(Cl)c3OC[C@H]2C1 (single isomer, unassigned)
4. C=CC(=O)N1CCN2C(=O)c3c(N4CCN(C5CC5)C[C@@H]4C)nc(-c4c(O)cccc4F)c(Cl)c3OC[C@H]2C1
5. C=CC(=O)N1CCN2C(=O)c3c(N4CCC(OC)C4(C)C)nc(-c4c(N)cccc4F)c(Cl)c3OC[C@H]2C1 (stereo partly shown)
6. C=CC(=O)N1CCN2C(=O)c3c(N(C)c4c(C(C)C)ncnc4C(C)C)nc(-c4c(O)cccc4F)c(Cl)c3OC[C@H]2C1
7. C=CC(=O)N1CCN2C(=O)c3c(N4CCOC(C)(C)C4)nc(-c4c(O)cccc4F)c(Cl)c3OC[C@H]2C1

1. 2.2
2. 2.9
3. 1.9
4. 13.5
5. 0.8
6. 4
7. 9

* * *

- Test system: KRAS G12C mutant NCI-H358 cells
- experimentalProtocol: Cell proliferation inhibition experiment, 3D spheroid, CellTiter-Glo, NCI-H358
- Type: cell-based, human
- runParameters: Homo sapiens, NCI-H358, 120 h, NCI-H358 (KRAS G12C mutant) 3D spheroid, 5 days with compound, CellTiter-Glo; read-out: H358 IC50
Structures can show the parent of a compound that is named as a salt.
measuredParameter: pIC50
Numbers only, as −log10 of the molar value.

Some solved cases for reference:
# molecule, pIC50
rows = [
    ("C=CC(=O)N1CCN2C(=O)c3c(N4C[C@@H](O)CC4(C)C)nc(-c4c(N)cccc4F)c(F)c3OC[C@H]2C1", 8.49),
    ("C=CC(=O)N1CCN2C(=O)c3c(N4C[C@H]5CC[C@@H](C4)O5)nc(-c4c(O)cccc4F)c(Cl)c3OC[C@H]2C1", 7.64),
    ("C=CC(=O)N1CCN2C(=O)c3c(N4CCN(CCOC)C(C)(C)C4)nc(-c4ccccc4F)c(Cl)c3OCC2C1 (centres unmarked)", 7.53),
    ("C=CC(=O)N1CCN2C(=O)c3c(N4CCOC(C)(C)C4)nc(-c4c(O)cccc4F)c(F)c3OC[C@H]2C1", 7.49),
    ("C=CC(=O)N1CCN2C(=O)c3c(N4C[C@H](N5CC(C(F)(F)F)C5)CC4(C)C)nc(-c4ccccc4F)c(Cl)c3OC[C@H]2C1 (single isomer, unassigned)", 7.00),
    ("C=CC(=O)N1CCN2C(=O)c3c(N4CCC[C@@]4(C)C(=O)NC)nc(-c4c(O)cccc4F)c(Cl)c3OC[C@H]2C1", 7.91),
    ("C=CC(=O)N1CCN2C(=O)c3c(N4C[C@H](N5CC(C#N)C5)CC4(C)C)nc(-c4ccccc4F)c(Cl)c3OC[C@H]2C1 (single isomer, unassigned)", 6.90),
    ("C=CC(=O)N1CCN2C(=O)c3c(N4CCOCC4)nc(-c4c(O)cccc4F)c(F)c3OC[C@H]2C1", 6.86),
    ("C=CC(=O)N1CCN2C(=O)c3c(N4C[C@@H](OC)CC4(C)C)nc(-c4c(O)cccc4F)c(F)c3OC[C@H]2C1 (single isomer, unassigned) [Z256a-1]", 8.47),
    ("C=CC(=O)N1CCN2C(=O)c3c(N4C[C@@H](C(=O)O)CC4(C)C)nc(-c4c(O)cccc4F)c(Cl)c3OC[C@H]2C1 (single isomer, unassigned)", 6.72),
]

Dear reader, for each entry below, please note its pIC50.
1. C=CC(=O)N1CCN2C(=O)c3c(N4CCCC45CCOC5)nc(-c4c(O)cccc4F)c(Cl)c3OC[C@H]2C1 (some centres unmarked)
2. C=CC(=O)N1CCN2C(=O)c3c(N4CCOC5(CCC5)C4)nc(-c4c(O)cccc4F)c(Cl)c3OC[C@H]2C1
3. C=CC(=O)N1CCN2C(=O)c3c(Nc4c(C)c(Cl)nn4C(C)C)nc(-c4c(O)cccc4F)c(Cl)c3OC[C@H]2C1
4. C=CC(=O)N1CCN2C(=O)c3c(OC[C@H]4CCCN4C)nc(-c4c(O)cccc4F)c(Cl)c3OC[C@H]2C1
5. C=CC(=O)N1CCN2C(=O)c3c(N4CCN(C)C[C@@H]4C)nc(-c4c(F)cccc4Cl)c(Cl)c3OC[C@H]2C1
6. C=CC(=O)N1CCN2C(=O)c3c(N4C[C@@H](O)[C@@H]4C)nc(-c4c(O)cccc4F)c(Cl)c3OC[C@H]2C1 (single isomer, unassigned)

1: 6.84; 2: 7.40; 3: 7.43; 4: 7.29; 5: 7.71; 6: 7.29

State the recorded pIC50 for every item in the following list.
1. C=CC(=O)N1CCN2C(=O)c3c(N4CC(N(C)C)CC4(C)C)nc(-c4cccc(F)c4F)c(Cl)c3OC[C@H]2C1 (single isomer, unassigned)
2. C=CC(=O)N1CCN2C(=O)c3c(Nc4c(C(C)C)ncnc4C(C)C)nc(-c4c(O)cccc4F)c(Cl)c3OC[C@H]2C1
3. C=CC(=O)N1CCN2C(=O)c3c(N4CCCC45CC5)nc(-c4c(O)cccc4F)c(Cl)c3OC[C@H]2C1
4. C=CC(=O)N1CCN2C(=O)c3c(N4CC(O)CC4(C)C)nc(-c4c(O)cccc4F)c(F)c3OC[C@H]2C1 (some centres unmarked)
5. C=CC(=O)N1CCN2C(=O)c3c(N4CCN(C)[C@@H](C)[C@H]4C)nc(-c4ccccc4F)c(Cl)c3OC[C@H]2C1 (single isomer, unassigned)
6. C=CC(=O)N1CCN2C(=O)c3c(N4Cc5cn(C)nc5[C@H]4C)nc(-c4c(O)cccc4F)c(Cl)c3OC[C@H]2C1 (single isomer, unassigned) [Z291-1S, trifluoroacetate]
7. C=CC(=O)N1CCN2C(=O)c3c(N4CCC[C@H]4C)nc(-c4c(O)cccc4F)c(Cl)c3OC[C@H]2C1

[7.92, 8.00, 7.77, 8.30, 7.89, 7.74, 7.82]

// for each molecule in input: emit pIC50
1. C=CC(=O)N1CCN2C(=O)c3c(NC45CC(C4)C5)nc(-c4c(O)cccc4F)c(Cl)c3OC[C@H]2C1
2. C=CC(=O)N1CCN2C(=O)c3c(N4CCN(C)C(=O)[C@@H]4C)nc(-c4c(O)cccc4F)c(Cl)c3OC[C@H]2C1
3. C=CC(=O)N1CCN2C(=O)c3c(N4C[C@@H](N(C)CC(F)F)CC4(C)C)nc(-c4ccccc4F)c(Cl)c3OC[C@H]2C1 (single isomer, unassigned)

1: 7.66; 2: 8.00; 3: 8.30
